assay.metric: melting point

# count of solved cases: 4
| chemical.smiles | assay.metric | measurement |
| --- | --- | --- |
| N#C/C(=C\c1cn(-c2ccccc2)nc1-c1ccc(O)cc1)C(=O)c1c[nH]c2ccccc12 | melting point | 288 to 290 °C |
| N#C/C(=C\c1cn(-c2ccccc2)nc1-c1ccccc1)C(=O)c1c[nH]c2ccccc12 | melting point | 250 to 252 °C |
| N#C/C(=C\c1cn(-c2ccccc2)nc1-c1ccc(Cl)cc1)C(=O)c1c[nH]c2ccccc12 | melting point | 296 to 298 °C |
| COc1ccc(-c2nn(-c3ccccc3)cc2/C=C(\C#N)C(=O)c2c[nH]c3ccccc23)cc1 | melting point | 252 to 254 °C |

For the molecule shown here, "Cc1ccc(-c2nn(-c3ccccc3)cc2/C=C(\C#N)C(=O)c2c[nH]c3ccccc23)cc1" , give the reported melting point.
288 to 290 °C
